Tested on: A549/ATCC NSCLC
Assay: NCI-60 one-dose screen, 48 h (100 = growth as untreated, 0 = no growth, -100 = all killed)
Settings: 10 µM unless noted
This is part of a sample that, as a whole, favours compounds with a hit. Of some 83,000 tested, about 20% had one in any assay.
Quantity name: growth (%)
The answer is to be given in %; state only the numeric part.

get_value(item= `C=Cc1cc[n+](CCCCCCCCCCCC)cc1` , readout=growth) returns 103

get_value(item= COc1ccc(NC(=O)c2sc3nc(C)c(C(O)c4ccc(OC)cc4)cc3c2N)cc1 (stereo not given) , readout=growth) returns 23

get_value(item= `Cc1nc2sc(C(=O)Nc3ccccc3)c(N)c2cc1C(=O)c1ccc(C(F)(F)F)cc1` , readout=growth) returns 42.8

get_value(item= `C#CC(=O)Nc1cccc(Nc2nc3c(c(NCc4ccccc4)n2)CCCC3)c1` , readout=growth) returns -48.5

get_value(item= `CNC(=O)Nc1ccc(-c2nc(N3CCOCC3)nc3c2cnn3C2CCOCC2)cc1` , readout=growth) returns -1.33

Origin of values: PubChem BioAssay (NCI)
